The reported numbers originate from the supplement of paper PMC10338343.

Catalogue of sequences with associated pre-steady-state target cleavage rate
Test system: MILI (PIWIL2) piRISC loaded with L1MC piRNA (26 nt);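 further: 1 nM active piRISC with 0.1 nM target library at 33 °C single turnover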
Experiment: pre-steady-state target cleavage rate (min^-1); guide: L1MC piRNA 5'p-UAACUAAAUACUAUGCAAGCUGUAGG; MIWI and MILI are mouse PIWI proteins and EfPiwi is from a freshwater sponge; tags in brackets are library labels; higher = faster piRNA-guided slicing of the target
Details: auxiliary factor: 500 nM mouse GTSF1

# INPUT_SEQUENCE, pre-steady-state target cleavage rate
data = [
    ("UCCUGGAUGUGUCUUGCAUAGUAUUUAGUUA", 0.072),
    ("UCCUGGUACAGCUUGAUAGUAUUUAGUUA", 0.0803),
    ("UCCUCCUACAGCAAGCAUAGUAUUUUCAAA", 0.111),
    ("UCCUCCUACAGCUUGCAUAGUAUGUUAGUUA", 0.126),
    ("UCCUGGAACACUUGCAUAGUAUUUAGUUA", 0.194),
    ("UCCUCCUGACAGCUUGCAUAGUAUUUAGUUA", 0.217),
    ("UCCUGGUACAGCUACCAUAGUAUUUAGUAA", 0.28),
    ("UCCUGGAUCAGGUUGCAUAGUAAUUAGUUA", 0.152),
    ("UCCUCCUACAGCUUGCAUAGAAUUUAGAUA", 0.0558),
    ("UCCUCCUACAGCUUGCAUUGUAUUAAGUUA", 0.132),
    ("UCCUGGAUCAGUUUGCAUAGUAUUUAGUUA", 0.24),
    ("UCCUGGAUGUCCUUGCAUAGUAUUUACAUA", 0.039),
    ("UCCUGGAUGUCCUUGCAUACUAUUUAGUAA", 0.0148),
    ("UCCUGGAUGUCGAUGCAUAGUUUUAAGUUA", 0.00654),
    ("UCCUGGAUCAGCUUGCAUAUUAUUUAGUUA", 0.0736),
    ("UCCUGGAUGUCCUUGCAUAGUAUUUAGAUA", 0.118),
    ("UCCUCCUACACCUUGCAUAGUAUUUAGUAA", 0.226),
    ("UCCUGGUACAGCUUGCAUAGUAUGUAGUUA", 0.03),
    ("UCCUGGAACAGCUUGCAUAGUAUAAUGUAA", 0.014),
    ("UCCUGGAUGUCGUUGCAUAGUAUAUAGUUA", 0.155),
    ("UCCUGGAUGAGCUUGCAUAGUAUUUUCAAA", 0.00959),
    ("UCCUGGAUGUCGAUGCAUAGUAUUUAGUAUA", 0.0977),
]
